Tested on: carbapenemase producing K. pneumoniae
Assay: MIC by broth micro-dilution (CLSI), carbapenemase producing K. pneumoniae
Type: cell-based, Klebsiella pneumoniae
Settings: Klebsiella pneumoniae, ATCCBAA1705, KPC-2 K. pneumoniae ATCC BAA-1705; read-out: MIC
REPORTED PROPERTY: MIC (µg/mL)

C[C@@H](NC(=O)Cn1cnnn1)[C@H]1C(=O)N2C(C(=O)O)=C(S[C@@H]3CN[C@H](C(=O)N4CC(O)C(CN)C4)C3)[C@H](C)[C@H]12 (single isomer, unassigned) | 4

1. C[C@@H](NC(=O)C(F)F)[C@H]1C(=O)N2C(C(=O)O)=C(SCCN)[C@H](C)[C@H]12
2. C[C@@H](NC(=O)Cc1nnn(C)n1)[C@H]1C(=O)N2C(C(=O)O)=C(S[C@@H]3CN[C@H](C(=O)N(C)C)C3)[C@H](C)[C@H]12
Looking at 1 and 2 , which one comes out lower in MIC terms? Refer to your chosen item by its label in the answer.
1

----------
System: carbapenemase producing K. pneumoniae
Experiment: MIC by broth micro-dilution (CLSI), carbapenemase producing K. pneumoniae
Format: cell-based, Klebsiella pneumoniae
Conditions: Klebsiella pneumoniae, ATCCBAA1705, KPC-2 K. pneumoniae ATCC BAA-1705; read-out: MIC
REPORTED PROPERTY: MIC (µg/mL)

a. C[C@@H](NC(=O)C(F)F)[C@H]1C(=O)N2C(C(=O)O)=C(S[C@@H]3CN[C@H](C(=O)N(C)[C@H]4CCNC4)C3)[C@H](C)[C@H]12 [Example 134]
b. C[C@@H](NC(=O)Cn1cnnn1)[C@H]1C(=O)N2C(C(=O)O)=C(S[C@@H]3CN[C@H](C(=O)N4CC5CCCNC5C4)C3)[C@H](C)[C@H]12 (single isomer, unassigned) [Example 452]
c. C[C@@H](NC(=O)Cn1cnnn1)[C@H]1C(=O)N2C(C(=O)O)=C(S[C@@H]3CN[C@H](C(=O)N4CCC5(CC4)CNC5)C3)[C@H](C)[C@H]12 [Example 368]
d. C[C@@H](NC(=O)Cn1cnnn1)[C@H]1C(=O)N2C(C(=O)O)=C(S[C@@H]3CN[C@H](C(=O)N4CCC(N5CC(CN)C5)CC4)C3)[C@H](C)[C@H]12 [Example 343]
Hello, I need these entries ordered by MIC, highest reading first. Thanks! A ranking is expressed here by listing the labels in the requested order.
d, a, c, b

----------
Test system: carbapenemase producing K. pneumoniae
Test: MIC by broth micro-dilution (CLSI), carbapenemase producing K. pneumoniae
Type: cell-based, Klebsiella pneumoniae
Settings: Klebsiella pneumoniae, ATCCBAA1705, KPC-2 K. pneumoniae ATCC BAA-1705; read-out: MIC
REPORTED PROPERTY: MIC (µg/mL)

1. C[C@@H](NC(=O)C(F)F)[C@H]1C(=O)N2C(C(=O)O)=C(S[C@@H]3CN[C@H](CN4CC[C@H](N)C4)C3)[C@H](C)[C@H]12 [Example 150]
2. C[C@@H](NC(=O)CC(N)=O)[C@H]1C(=O)N2C(C(=O)O)=C(S[C@@H]3CN[C@H](C(=O)N(C)C)C3)[C@H](C)[C@H]12 [Example 268]
3. C[C@@H](NC(=O)Cn1cnnn1)[C@H]1C(=O)N2C(C(=O)O)=C(S[C@@H]3CN[C@H](C(=O)N4C[C@@H](O)[C@H](N)[C@H]4CO)C3)[C@H](C)[C@H]12 [Example 548]
Using measured MIC, arrange the compounds from above in descending sequence. Answer format: list of labels, ordered as asked.
1, 2, 3
(1: 16 µg/mL, 2: 4 µg/mL, 3: 1 µg/mL)

1. C[C@@H](NC(=O)C(F)F)[C@H]1C(=O)N2C(C(=O)O)=C(S[C@@H]3CN[C@H](CNC(=O)[C@@H]4C[C@@H](N)CN4)C3)[C@H](C)[C@H]12 [Example 261]
2. CNCC(=O)N[C@H](C)[C@H]1C(=O)N2C(C(=O)O)=C(S[C@@H]3CN[C@H](C(=O)N4CCNCC4)C3)[C@H](C)[C@H]12 [Example 168]
Which record shows the lower MIC: the first, 1 , or the second, 2 ? When you have decided, please share the label of that item.
2
(2: 2 µg/mL, 1: 16 µg/mL)

P. C[C@@H](NC(=O)Cn1cnnn1)[C@H]1C(=O)N2C(C(=O)O)=C(S[C@@H]3CN[C@H](C(=O)N4CCC(CO)CC4)C3)[C@H](C)[C@H]12 [Example 423]
Q. CNCC(=O)N[C@H](C)[C@H]1C(=O)N2C(C(=O)O)=C(S[C@@H]3CN[C@H](C(=O)N4CC[C@H](n5cc(CN)nn5)C4)C3)[C@H](C)[C@H]12 [Example 178]
Could you please tell me which of these two has the higher MIC: P or Q ? State the label of the item chosen.
Q

----------
Tested on: carbapenemase producing K. pneumoniae
Assay: MIC by broth micro-dilution (CLSI), carbapenemase producing K. pneumoniae
Format: cell-based, Klebsiella pneumoniae
Conditions: Klebsiella pneumoniae, ATCCBAA1705, KPC-2 K. pneumoniae ATCC BAA-1705; read-out: MIC
REPORTED PROPERTY: MIC (mg/L)

# example entries with known answers
C[C@@H](NC(=O)CN)[C@H]1C(=O)N2C(C(=O)O)=C(S[C@@H]3CN[C@H](C(=O)N(C)C)C3)[C@H](C)[C@H]12 | 8
C[C@@H](NC(=O)Cn1cnnn1)[C@H]1C(=O)N2C(C(=O)O)=C(S[C@@H]3CN[C@H](C(=O)N4CCC(CN)CC4)C3)[C@H](C)[C@H]12 | 0.5
C[C@@H](NC(=O)Cn1cnnn1)[C@H]1C(=O)N2C(C(=O)O)=C(S[C@@H]3CN[C@H](C(=O)N4CCC(CCN)CC4)C3)[C@H](C)[C@H]12 | 1
CC(=O)OCC(=O)N[C@H](C)[C@H]1C(=O)N2C(C(=O)O)=C(S[C@@H]3CN[C@H](C(=O)N(C)C)C3)[C@H](C)[C@H]12 | 8

I. C[C@@H](NC(=O)Cn1cnnn1)[C@H]1C(=O)N2C(C(=O)O)=C(S[C@@H]3CN[C@H](C(=O)N4C[C@@H](NC(=N)N)C[C@H]4CO)C3)[C@H](C)[C@H]12
II. CC(C)C[C@H](N)C(=O)N[C@H](C)[C@H]1C(=O)N2C(C(=O)O)=C(S[C@@H]3CN[C@H](C(=O)N(C)C)C3)[C@H](C)[C@H]12
III. C[C@@H](NC(=O)Cn1cnnn1)[C@H]1C(=O)N2C(C(=O)O)=C(S[C@@H]3CN[C@H](C(=O)N4CC[N+](C)(CCN)CC4)C3)[C@H](C)[C@H]12.[I-]
IV. C[C@@H](NC(=O)Cn1cnnn1)[C@H]1C(=O)N2C(C(=O)O)=C(S[C@@H]3CN[C@H](C(=O)N4CCN(C)CC4)C3)[C@H](C)[C@H]12
V. C[C@@H](NC(=O)Cn1cnnn1)[C@H]1C(=O)N2C(C(=O)O)=C(S[C@@H]3CN[C@H](CNS(N)(=O)=O)C3)[C@H](C)[C@H]12
Task for the reader: rank each entry by its MIC, from the minimum upward. Would you mind listing the labels in the order asked for?
I, V, IV, II, III
(I: 0.5 mg/L, V: 1 mg/L, IV: 2 mg/L, II: 4 mg/L, III: 8 mg/L)

I. C[C@@H](NC(=O)Cn1nnnc1C(F)F)[C@H]1C(=O)N2C(C(=O)O)=C(S[C@@H]3CN[C@H](C(=O)N4CC[C@@H](N)C4)C3)[C@H](C)[C@H]12
II. C[C@@H](NC(=O)Cn1cnnn1)[C@H]1C(=O)N2C(C(=O)O)=C(S[C@@H]3CN[C@H](C(=O)N4CCN(C5CNC5)CC4)C3)[C@H](C)[C@H]12
Lab note: record which item had the higher MIC, I or II . Write the label of whichever entry you select.
I

----------
System: carbapenemase producing K. pneumoniae
Experiment: MIC by broth micro-dilution (CLSI), carbapenemase producing K. pneumoniae
Assay type: cell-based, Klebsiella pneumoniae
Conditions: Klebsiella pneumoniae, ATCCBAA1705, KPC-2 K. pneumoniae ATCC BAA-1705; read-out: MIC
REPORTED PROPERTY: MIC (µg/mL)

C[C@@H](NC(=O)C(F)F)[C@H]1C(=O)N2C(C(=O)O)=C(S[C@@H]3CN[C@H](C(=O)N4CCC5CNCCC54)C3)[C@H](C)[C@H]12 (stereo partly drawn) [Example 486] | 8

P. C[C@@H](NC(=O)CN(C)C)[C@H]1C(=O)N2C(C(=O)O)=C(S[C@@H]3CN[C@H](C(=O)N4CC[C@@H](N)C4)C3)[C@H](C)[C@H]12 [Example 180]
Q. C[C@@H](NC(=O)[C@@H]1CSCN1)[C@H]1C(=O)N2C(C(=O)O)=C(S[C@@H]3CN[C@H](C(=O)N4CC[C@@H](N)C4)C3)[C@H](C)[C@H]12 [Example 271]
R. C[C@@H](NC(=O)Cn1cnnn1)[C@H]1C(=O)N2C(C(=O)O)=C(S[C@@H]3CN[C@H](C(=O)N4C[C@@H]5CNC[C@]5(CO)C4)C3)[C@H](C)[C@H]12 [Example 525]
S. CC(C)C[C@@H](N)C(=O)N[C@H](C)[C@H]1C(=O)N2C(C(=O)O)=C(S[C@@H]3CN[C@H](C(=O)N(C)C)C3)[C@H](C)[C@H]12 [Example 113]
Please give the order of these compounds when sorted by MIC, largest value leading. Output the labels ranked as instructed.
P, S, Q, R
(P: 32 µg/mL, S: 16 µg/mL, Q: 4 µg/mL, R: 2 µg/mL)
